Answer each item with its documented Second Scan Tm.
Experiment: Thermal stability by differential scanning calorimetry
Assay type: physicochemical
Details: cysteine-NEM conjugates, second identical scan
Method: The thermal stability of cysteine-NEM conjugates was assessed by differential scanning calorimetry (DSC). The only the conjugates tested were those determined to express at high levels, conjugate efficiently, and retain EGFR binding. Additionally, cysteine variants within the BC and FG loops were excluded. Stability data was generated by heating a 400 μL aliquot of the variant from 25° C. to 100° C. at a scan rate of 1° C. per minute in a VP-DSC instrument (MicroCal). […]
Just the number in °C, nothing appended.

Query: Second Scan Tm; subject: T93C (protein, EGFR binding FN3 domain; EGFR-binding FN3 domain) chain 1: MLPAPKNLVVSEVTEDSARLSWDDPWAFYESFLIQYQESEKVGEAIVLTVPGSERSYDLTGLKPGTEYTVSIYGVHNVYKDTNMRGLPLSAIFCT chain 2: LPAPKNLVVSEVTEDSARLSWDDPWAFYESFLIQYQESEKVGEAIVLTVPGSERSYDLTGLKPGTEYTVSIYGVHNVYKDTNMRGLPLSAIFCT
Response: 69

Query: Second Scan Tm; subject: V8C (protein, EGFR binding FN3 domain; EGFR-binding FN3 domain) chain 1: MLPAPKNLCVSEVTEDSARLSWDDPWAFYESFLIQYQESEKVGEAIVLTVPGSERSYDLTGLKPGTEYTVSIYGVHNVYKDTNMRGLPLSAIFTT chain 2: LPAPKNLCVSEVTEDSARLSWDDPWAFYESFLIQYQESEKVGEAIVLTVPGSERSYDLTGLKPGTEYTVSIYGVHNVYKDTNMRGLPLSAIFTT
Response: 69

All figures here come from patent US10662235B2.
